protocol notes: chemical genetic growth profiling, strain panel (AID 1159580);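 further: tested at 20 µM; growth read once vehicle control cultures reached saturation at 30 °C; 1 = growth at the plate median or of vehicle wells; lower values mean less growth of the strain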
recorded conditions: S. cerevisiae deletion strains, growth OD, locus YNL197C, strain WHI3, active compounds read low
About 2,000 (36%) of roughly 5,500 compounds were called active. Roughly 18% stayed inconclusive and do not appear here. The list shows a part of the results.
measured property: normalized growth
The answer should be a number; do not append a unit.

Field: example entries. Status: answers known.
compound	normalized growth
c1ccc2nc(N3CCNCC3)ccc2c1	0.998
CN(C)CCC(c1ccc(Br)cc1)c1ccccn1 (centres undefined)	1.01
Cc1nc2n(c(=O)c1CCN1CCC(c3noc4cc(F)ccc34)CC1)CCCC2	1.01

Query: Name the recorded normalized growth of the item NC(=O)C(=O)O in your answer.
Response: 1

Query: Name the recorded normalized growth of the item Nc1ccn([C@@H]2O[C@H](CO)[C@@H](O)C2O)c(=O)n1 (some centres undefined) in your answer.
Response: 0.976
